Known OD450 of a selection of binders
assayed_system: Hemagglutinin of influenza A/Solomon Islands/3/06 (H1N1), on inactivated whole virions (Influenza A virus A/Solomon …)
test_details: ELISA, B cell culture supernatant on inactivated whole virions
readout: OD450 (OD450)

[[record]]
binder = "TCN-553 (5261_C18) (antibody, V domains shown) VH: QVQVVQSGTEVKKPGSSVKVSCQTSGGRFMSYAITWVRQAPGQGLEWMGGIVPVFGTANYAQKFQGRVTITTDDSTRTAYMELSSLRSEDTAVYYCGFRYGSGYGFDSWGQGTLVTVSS VL: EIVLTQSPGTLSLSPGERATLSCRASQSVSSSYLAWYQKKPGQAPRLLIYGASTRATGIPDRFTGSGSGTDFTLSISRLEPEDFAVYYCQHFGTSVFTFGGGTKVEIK"
unit_string = "OD450"
value = 3.6

[[record]]
binder = "TCN-528 (5087_P17) (antibody, V domains shown) VH: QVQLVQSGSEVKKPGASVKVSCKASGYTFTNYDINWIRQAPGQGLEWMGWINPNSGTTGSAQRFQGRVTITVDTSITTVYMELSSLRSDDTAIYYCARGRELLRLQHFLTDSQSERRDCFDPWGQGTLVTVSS VL: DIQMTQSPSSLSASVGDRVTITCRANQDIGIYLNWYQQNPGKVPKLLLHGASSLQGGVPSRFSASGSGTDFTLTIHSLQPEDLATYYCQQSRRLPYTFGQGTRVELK"
unit_string = "OD450"
value = 3.62

[[record]]
binder = "TCN-534 (5249_B02) (antibody, V domains shown) VH: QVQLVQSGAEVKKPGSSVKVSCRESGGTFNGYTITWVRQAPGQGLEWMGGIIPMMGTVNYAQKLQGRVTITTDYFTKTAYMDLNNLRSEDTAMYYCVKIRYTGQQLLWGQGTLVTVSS VL: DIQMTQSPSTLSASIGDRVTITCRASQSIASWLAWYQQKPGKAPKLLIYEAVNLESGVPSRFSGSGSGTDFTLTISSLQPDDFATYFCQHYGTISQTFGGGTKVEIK"
unit_string = "OD450"
value = 3.55

